Exercise: for every item that follows, state its recorded PBM binding z-score.
Test system: RARg homodimer (NR concentration 270 nM)
test.name: PBM binding z-score (relative to random genomic background probes); higher = stronger binding; sequences stand for … in GC…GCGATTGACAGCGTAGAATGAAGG
# print the numeric value only

Consider the sequence GCGACTGGGGCAAAGCAGGTTACCGTAAGGTTGG and give its recorded PBM binding z-score.
0.183

Consider the sequence TGAATGAGGTTATAAGATGAGGGAACGTTGCAAA and give its recorded PBM binding z-score.
1.12

Consider the sequence ACTCGGAGGACAAAGGTCAGAGCAACGCCAGTGA and give its recorded PBM binding z-score.
5.43

Consider the sequence CAAACTAGGTCACCGGATGGTCAAAGTCCGCATG and give its recorded PBM binding z-score.
5.58

Consider the sequence CAGACTGGGGCAAGGTTACCATAACGCACAGCCA and give its recorded PBM binding z-score.
1.52

Consider the sequence TATACAGGGTCAAAGGCCCGAGTACGAATGTCGA and give its recorded PBM binding z-score.
4.67

Consider the sequence CGTCCAAGGTCAGAGGGGTCAGTGAATGCCGAGT and give its recorded PBM binding z-score.
7.18

Consider the sequence CGAACTAGGTCATTGAAAGGACAGTGAATAGTAA and give its recorded PBM binding z-score.
4.98

Consider the sequence ATCTCTAGGTAACCAAGTTCAGTGAATGCCGAAC and give its recorded PBM binding z-score.
0.853

Consider the sequence TCATATCGGTAAAGGTGAAAGTCGAACGATATGA and give its recorded PBM binding z-score.
1.16

Consider the sequence GCATATAGGTAATACAAGGTGAAAGGCCGATTGT and give its recorded PBM binding z-score.
0.747

Consider the sequence GCTTGTAGATCAAGGTTAATAAAGACTAAGCTAA and give its recorded PBM binding z-score.
0.168

Consider the sequence CCTAGCAGGCCAATCTGGGTCACTCAAGGCTTGA and give its recorded PBM binding z-score.
1.57

Consider the sequence TCGAGTAGCTTAGTCGGGGCATTCAGCCAACATA and give its recorded PBM binding z-score.
-1.05

Consider the sequence CGTCCAAGGTCAATGCTAGGTCAGTGTAAGCATT and give its recorded PBM binding z-score.
7

Consider the sequence TCAAACAGGTGAAGGTAACTCAGGTACGCAGTCG and give its recorded PBM binding z-score.
0.597

Consider the sequence CTACCAAGGTGAACAACGTCGTTGATTACTATTC and give its recorded PBM binding z-score.
0.962

Consider the sequence CAAACTAGGTCAAGAGGGCAAAGTCCGCTTCCCG and give its recorded PBM binding z-score.
5.4

Consider the sequence ATCCCTAGGTAAAGTTCAGTGAAAGATCGATAGA and give its recorded PBM binding z-score.
1.95

Consider the sequence AGAACGAGGGCAATGAGTTGATAGTACGGGTGGC and give its recorded PBM binding z-score.
1.61

Consider the sequence CATCCAAGGTCAGCAGGTCAGTGAAAGCGACGTG and give its recorded PBM binding z-score.
7.09

Consider the sequence GGAACGAGGGCATTTGAGTTGATAGCATGGCGAT and give its recorded PBM binding z-score.
1.29

Consider the sequence CCTCCAAGGTCAGAGAGGTCAGTGAATGCCGAGT and give its recorded PBM binding z-score.
6.87

Consider the sequence ATCTGTAGGTAACCAAGTTCAGTGAATGCCGAAC and give its recorded PBM binding z-score.
0.722

Consider the sequence AGTCAAAGTTCCGGACGAGGTAACGTAAAGCACG and give its recorded PBM binding z-score.
0.277

Consider the sequence AGAATGAGGTGATACGTAGATCAGGGAAGAAAGT and give its recorded PBM binding z-score.
0.546

* * *

System: THRa homodimer (NR concentration 90 nM)
test.name: PBM binding z-score (relative to random genomic background probes); higher = stronger binding; sequences stand for … in GC…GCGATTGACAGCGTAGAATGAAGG
property: PBM binding z-score

Consider the sequence ACTATTAGTTGAGACTAGGGCAACCGATAGGTTG and give its recorded PBM binding z-score.
-0.533

Consider the sequence GATCCAGGGTCAAGGCCAGAGTACGCGTATTGAT and give its recorded PBM binding z-score.
1.11

Consider the sequence AATAGTTGGTCAGCTGAGGTCACACACAATTCGG and give its recorded PBM binding z-score.
5.21

Consider the sequence CGTCCAACGTCATAGGAGGTCAGTGAAGACAGAT and give its recorded PBM binding z-score.
0.654

Consider the sequence GTTTACGGGTCAAAGGTTATAGCATGAATAGAAT and give its recorded PBM binding z-score.
0.0413

Consider the sequence CCTAGCAGGCCAGGATCACTCAAGCATTTCGCTT and give its recorded PBM binding z-score.
-0.257

Consider the sequence CCGACTGGGGCTGAAAGGTTACCATACCATCCGG and give its recorded PBM binding z-score.
-0.189

Consider the sequence ATCTCTAGGTGAGACTCAGTTCAGTGAAGAACGC and give its recorded PBM binding z-score.
0.42

Consider the sequence ACTATTAGTTGATACGAGGGCAACCGATAGGTTG and give its recorded PBM binding z-score.
0.673

Consider the sequence ACTATTCGTTGAGACGAGGGCAACCGATAGGTTG and give its recorded PBM binding z-score.
0.648

Consider the sequence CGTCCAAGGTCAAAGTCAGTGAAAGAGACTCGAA and give its recorded PBM binding z-score.
1.72

Consider the sequence AGAATGAGGGCAATGAGTTGATAGCACGGGTGGC and give its recorded PBM binding z-score.
0.363

* * *

Tested on: PPARg:RXRa IVT, anti-PPARg (NR concentration 270 nM, RXRa partner concentration 90 nM)
test.name: PBM binding z-score (relative to random genomic background probes); higher = stronger binding; sequences stand for … in GC…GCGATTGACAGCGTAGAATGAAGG
Decide using PBM binding z-score: a value greater than or equal to 3 is Fulfilled, a smaller one is Not fulfilled.

Is PBM binding z-score for CGTCCAAGTTCAAGGTCAGTGAAAGAGACTCGAA at or above 3?
Not fulfilled

Is PBM binding z-score for CGAACGAGGGCATGCGTTGATAGCAAATGCCGAT at or above 3?
Not fulfilled

Is PBM binding z-score for TCGAGTAGGTTAGGGTCATTCAGAATGGCGTCGA at or above 3?
Not fulfilled

Is PBM binding z-score for CCTCCTGGGCCATCAGGTCATTGATATCAACGTT at or above 3?
Not fulfilled

Is PBM binding z-score for AGAACGAGCGCAATGAGTTGATAGCACGGGTGGC at or above 3?
Not fulfilled

Is PBM binding z-score for CAAACTAGGTCAAGGTCACAGTCGGTTTGTGCCA at or above 3?
Fulfilled

* * *

System: LXRa:RXRa (NR concentration 270 nM, RXRa partner concentration 90 nM)
test.name: PBM binding z-score (relative to random genomic background probes); higher = stronger binding; sequences stand for … in GC…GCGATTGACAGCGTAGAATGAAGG
Exercise: for every item that follows, state its recorded PBM binding z-score.
# print the numeric value only

Consider the sequence ACTATTAGTTGACTTAGGGCAACGGATACGACGC and give its recorded PBM binding z-score.
0.158

Consider the sequence CCAGACAGGTGAAAGGTAACCCAGTCTGGTACGC and give its recorded PBM binding z-score.
0.713

Consider the sequence CCTAGCAGGCCAGGGTCACTCGAGCATTTCGCTT and give its recorded PBM binding z-score.
1.62

Consider the sequence CCTAGCAGGCCAGGGTCACTCACGCATTTCGCTT and give its recorded PBM binding z-score.
1.57

Consider the sequence CGAACTAGGTCATCCAGGACATTGAATACATTGA and give its recorded PBM binding z-score.
2.87

Consider the sequence ATCTGTAGGTTAAGGGTCATTCAGGTTGGTTCGC and give its recorded PBM binding z-score.
5.26

Consider the sequence AGAATGAGGTTACCAAAGATTAGGGAAACGCTTG and give its recorded PBM binding z-score.
4.54

Consider the sequence TCATGTAGGTAAATGCTAGGTGAAAGTCCGATCT and give its recorded PBM binding z-score.
0.46

Consider the sequence TCGACTAGGTTAGGGGCATTCAGAATGGCGTCGA and give its recorded PBM binding z-score.
0.372

Consider the sequence ATATGTAGGTTATCGCGTCATTCAGTTTGCGCAT and give its recorded PBM binding z-score.
1.01

Consider the sequence CCTAGTTGGTCGGGAGGTCACACACCGGATATGA and give its recorded PBM binding z-score.
3.32

Consider the sequence CCTAGCAGGCCAAGCTGGGTCACTCAAGGCTTGA and give its recorded PBM binding z-score.
0.966

* * *

Test system: RARa homodimer (NR concentration 270 nM)
test.name: PBM binding z-score (relative to random genomic background probes); higher = stronger binding; sequences stand for … in GC…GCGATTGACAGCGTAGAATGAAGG
property: PBM binding z-score
# print the numeric value only

Determine reported PBM binding z-score for GTGACTGGGGCATCAGCAGGTTACCATAACTTAA ; test system: RARa homodimer (NR concentration 270 nM).
-0.0196

Determine reported PBM binding z-score for TCGAGTAGGTTACCAATGGGGGATTCAGCTTTCT ; test system: RARa homodimer (NR concentration 270 nM).
-0.393

Determine reported PBM binding z-score for TCATATATGTAAATGCTAGGTGAAAGTCCGATCT ; test system: RARa homodimer (NR concentration 270 nM).
0.525

Determine reported PBM binding z-score for TCGAGCAGGCCAGAGGGTCACTCAAGAGGTACGG ; test system: RARa homodimer (NR concentration 270 nM).
-0.84

Determine reported PBM binding z-score for GCTTGTAGATCAAGGTTACGAAAGACTAAGCTAA ; test system: RARa homodimer (NR concentration 270 nM).
0.273

Determine reported PBM binding z-score for CCTGCTGGGCCAAGGTCATTGATCAGTCAAAGCA ; test system: RARa homodimer (NR concentration 270 nM).
-0.536

Determine reported PBM binding z-score for TCTCCGAGGACACGAAGGTCAGAGCTTTCCAGAG ; test system: RARa homodimer (NR concentration 270 nM).
-0.358

Determine reported PBM binding z-score for ATCTCTAGTTAACAAGTTCAGTGAAAGAGAGGAC ; test system: RARa homodimer (NR concentration 270 nM).
1.15

Determine reported PBM binding z-score for TCGAGTAGGTCAGGGGCATTCAGAATGGCGTCGA ; test system: RARa homodimer (NR concentration 270 nM).
-0.681

Determine reported PBM binding z-score for CGAACTAGGTCAGAACAGAACAGTGAAGGATGAT ; test system: RARa homodimer (NR concentration 270 nM).
-0.0462

Determine reported PBM binding z-score for CCTAGTTGGTCAGGAGGACACACACCGGATATGA ; test system: RARa homodimer (NR concentration 270 nM).
1.7

Determine reported PBM binding z-score for AGAATGAGGTTACGAAAGATCAGGGAAACGCTTG ; test system: RARa homodimer (NR concentration 270 nM).
-0.313
